Measurement description: Hemolytic activity against human erythrocytes after 1 hr
Format: ADME, cell-based, Erythrocyte
Observation type: HC50 at 1 h

Would you kindly share the measured HC50 at 1 h for H-SKVWRHWRRFWHRAHRKL-OH ? > 500 µM
